logP values, listed per item
Hey, just send me the number, nothing else.

Some solved entries appear below for comparison.
CN(C=C1c2cccc(O)c2C(=O)c2c(O)cccc21)c1ccccc1 :: 5.07
O=C1c2c(O)cccc2C(=CNc2ccc(F)cc2)c2cccc(O)c21 :: 4.64
O=C1c2c(O)cccc2C(=CNc2ccc(Br)cc2)c2cccc(O)c21 :: 5.19
O=C1c2c(O)cccc2C(=CNCc2ccccc2)c2cccc(O)c21 :: 4.23
O=C1c2c(O)cccc2C(=CNc2ccc([N+](=O)[O-])cc2)c2cccc(O)c21 :: 4.7

Request: Request the reported logP associated with O=C1c2c(O)cccc2C(=CNc2ccc3c(c2)OCO3)c2cccc(O)c21
Result: 4.74

Request: Given the molecule COc1ccc(NC=C2c3cccc(O)c3C(=O)c3c(O)cccc32)cc1 , what is its reported logP?
Result: 4.9

Request: Given the molecule COc1ccccc1NC=C1c2cccc(O)c2C(=O)c2c(O)cccc21 , what is its reported logP?
Result: 4.37

Request: Please look up its logP: O=C1c2c(O)cccc2C(=CNc2ccc(O)cc2)c2cccc(O)c21
Result: 4.01

Request: Given CNC=C1c2cccc(O)c2C(=O)c2c(O)cccc21 , state its recorded logP.
Result: 3.55

Request: Param item = O=C1c2c(O)cccc2C(=CNc2ccccc2)c2cccc(O)c21 ; retrieve measured logP.
Result: 4.96

Request: What value of measured logP is listed for O=C1c2c(O)cccc2C(=CNc2ccc(Cl)cc2)c2cccc(O)c21 ?
Result: 5.06

Request: What measured logP goes with COc1ccc(NC=C2c3cccc(O)c3C(=O)c3c(O)cccc32)cc1OC ?
Result: 4.37
